Test system: Organic anion transporters (OATs)
Test: In vivo microdialysis pharmacokinetics of LVFX with OATs inhibitor probenecid
Set-up: species or system rat
Settings: rat, intravenous, with Probenecid 50 mg/kg i.p., 30 min before LVFX; blood; PRO group, Probenecid 50 mg/kg i.p. + LVFX 50 mg/kg; mean ± SD, N=5; read-out: AUC0–180 (converted)
READOUT NAME: AUC(0-t) (ng·h/mL)

* C[C@H]1COc2c(N3CCN(C)CC3)c(F)cc3c(=O)c(C(=O)O)cn1c23 | 23200

###

Assay: In vivo microdialysis pharmacokinetics of LVFX without transporter inhibitors
Design: species or system rat
Settings: rat, lateral ventricle CSF (microdialysate, unbound), iv, 50 mg/kg, lateral ventricle CSF; control group, vehicle + LVFX 50 mg/kg tail vein; mean ± SD, N=12
Procedure: On the day of surgery, rats were anesthetized using inhaled isoflurane via a facemask. The rats were placed in a stereotaxic frame (Gene&I), and the body temperature was maintained with a homoeothermic blanket set at 37°C. A midline incision was made to expose the skull. […]
READOUT NAME: half-life (min)

* C[C@H]1COc2c(N3CCN(C)CC3)c(F)cc3c(=O)c(C(=O)O)cn1c23 [LVFX, Levofloxacin] | 44.1
